method_description: rat acute oral toxicity
assay_conditions: in vivo
Hi! Could you tag entries with LD50 below 700 mg/kg as true, and those at or above as false? Much appreciated.

C=C(C)C(=O)OCCN=C=O ... true
CNC(=O)CSP(=O)(OC)OC ... true
CCCC1COC(Cn2cncn2)(c2ccc(Cl)cc2Cl)O1 (stereo not given) ... false
O=P1(N(CCCl)CCCl)NCCCO1 (stereo not given) ... true
ClC1=C(Cl)[C@]2(Cl)[C@@H]3[C@@H]4C[C@@H]([C@H]5O[C@@H]45)[C@@H]3[C@@]1(Cl)C2(Cl)Cl (single isomer, unassigned) ... true
C=CN1CCCC1=O ... false
C1=CC2C3C=CC(C3)C2C1 (stereo not given) ... true
CS ... true
CC(Cl)(Cl)C(=O)O ... false
Cc1c(N)cccc1N ... false
CC1=CCC(O)(C(C)C)CC1 (stereo not given) ... false
CC(O)CC(C)(C)O (stereo not given) ... false
CCCCC(C=O)CC (stereo not given) ... false
CCCOCC(C)O (stereo not given) ... false
COCCOC(C)=O ... false
NCCCOCCOCCOCCCN ... false
CC(=O)O ... false
CC(C)N(C(=O)SCC(Cl)=C(Cl)Cl)C(C)C ... true
Clc1cc2c(c(Cl)c1Cl)Oc1cc(Cl)c(Cl)c(Cl)c1O2 ... true
OC(O)C(Cl)(Cl)Cl ... true
CC1=NNC(=O)N(/N=C/c2cccnc2)C1 ... false
CCO ... false
CCCCOCN(C(=O)CCl)c1c(CC)cccc1CC ... false
BrC(Br)Br ... false
CCCCC(CC)COC(=O)CC(C(=O)OCC(CC)CCCC)S(=O)(=O)O (stereo not given) ... false
COP(=O)(OC)O/C(C)=C/C(=O)N(C)C ... true
CCCCOCCOCCO ... false
CC(C)c1cccc(C(C)C)c1N=C=Nc1c(C(C)C)cccc1C(C)C ... true
COP(=O)(OC)C(O)C(Cl)(Cl)Cl (stereo not given) ... true
CC(=O)C1C(=O)C=C(C)OC1=O (stereo not given) ... true
OCCNc1ccccc1 ... false
NNc1nncc2ccccc12 ... true
C1=CCCC=CCCC=CCC1 ... false
CCCCOCC1CO1 (stereo not given) ... false
CNC(=O)CC#N ... true
CC(C)[C@H](C(=O)OC(C#N)c1cccc(Oc2ccccc2)c1)c1ccc(OC(F)F)cc1 (stereo not given in full) ... true
O=P(OCC(Br)CBr)(OCC(Br)CBr)OCC(Br)CBr (stereo not given) ... false
CC(=O)CC(=O)Nc1ccccc1C ... false
CC(=O)CC(C)C ... false
CCCCCO ... false
Cc1ccccc1Cc1ccccc1 ... false
CC1(C)C(=O)N(Br)C(=O)N1Br ... true
CCC(C)(CCC(C)C)C(=O)OOC(C)(C)C (stereo not given) ... false
C=CC1CC=CCC1 (stereo not given) ... false
COCCOCCOCCOCCOC ... false
CCC(C)=O ... false
C=COC(C)=O ... false
C=C(C)[C@H]1Cc2c(ccc3c2O[C@@H]2COc4cc(OC)c(OC)cc4[C@@H]2C3=O)O1 ... true
CCC(CC)CN ... true
CCc1cccc(C)c1N(C(=O)CCl)C(C)COC (stereo not given) ... false
CC1(C)COCN1 ... false
CCC[N+](C)(C)CC[N+](C)(C)CCO ... false
CCCCOC(=O)c1ccccc1 ... false
O=Cc1ccco1 ... true
C=CCOC(=O)C(=C)C ... true
CC1OC(=O)C(C)OC1=O (stereo not given) ... false
O=[N+]([O-])c1ccc(Cl)cc1O ... false
NC(=O)CF ... true
O=C(O)c1ccccc1C(=O)Nc1cccc2ccccc12 ... false
ClC(Cl)c1ccccc1 ... false
CN(C)CCN(C)C ... true
N[C@@H](CCC(=O)O)C(=O)O ... false
Cc1cccc(Nc2cc(Cl)nc(SCC(=O)O)n2)c1C ... false
COC(=O)OC(=O)OC ... true

====

method_description: GHS categories as the set defines them, by LD50: 1 up to 5, 2 up to 50, 3 up to 300, 4 up to 2000, 5 above 2000 mg/kg
assay_conditions: rat; in vivo; po
quantity_kind: GHS category

C=C(C=CCC(O)C(O)C(O)CC=CC=CC(O)CC1OC(CC(O)C(O)CC2OC(C(O)C(O)CCC(O)C=CC(C)C(O)CC3(O)OC(CC(O)CCCCCCCC45CC(C)CC(C)(O4)C(CC(C)CCCCCC(O)C(O)C(O)C(O)C(O)C4OC(CC(O)C(O)C(C)=CC(O)CC(C)C(O)C(=O)NC=CC(=O)NCCCO)C(O)C(O)C4O)O5)C(O)C(O)C3O)CC(O)C2O)C(O)C(O)C1O)CCC(O)C(O)C(O)C(C)CC1OC(C=CC(O)C(O)CC2CC3CC(O2)C(CCC2OC(CN)CC2O)O3)C(O)C(O)C1O (stereo not drawn) ... 1
CN(C)CCOC(=O)C(c1ccccc1)C1(O)CCCC1 (stereo not drawn) ... 5
CCSCCCSc1nnnn1C ... 4
Cn1c(CCCC(=O)O)nc2cc(N(CCCl)CCCl)ccc21 ... 3
CSc1nc2cc(Cl)ccc2o1 ... 5
CC1CN(S(=O)(=O)c2cccc3cnccc23)CCN1 (stereo not drawn) ... 4
Oc1ccc2c(c1)CCN(c1ccccc1)C2c1ccc(F)cc1 (stereo not drawn) ... 4
COc1cnc(OC)n2nc(NS(=O)(=O)c3c(OCC(F)F)cccc3C(F)(F)F)nc12 ... 5

====

method_description: GHS categories as the set defines them, by LD50: 1 up to 5, 2 up to 50, 3 up to 300, 4 up to 2000, 5 above 2000 mg/kg
assay_conditions: rat; in vivo; po
Quick list: GHS category per entry.
quantity_kind: GHS category

CN[C@H](CC(C)C)C(=O)N[C@H]1C(=O)N[C@@H](CC(N)=O)C(=O)N[C@H]2C(=O)N[C@H]3C(=O)N[C@H](C(=O)N[C@@H](C(=O)O)c4cc(O)cc(O)c4-c4cc3ccc4O)[C@H](O)c3ccc(c(Cl)c3)Oc3cc2cc(c3O[C@@H]2O[C@H](CO)[C@@H](O)[C@H](O)[C@H]2O[C@H]2C[C@](C)(N)C(O)[C@H](C)O2)Oc2ccc(cc2Cl)[C@H]1O (some centres undefined) ... 5
CNC(=O)C(=NNc1ccccc1Cl)C(C)=O ... 5
C1C2CC3CC1CC(C2)C3 ... 5
CCCCCCCCCCCCCCCCCC(=O)OCCOCCO ... 5
CC(=O)OC1CC[C@H]2[C@@H]3CC[C@H]4CC(=O)C=C(C)[C@]4(C)[C@H]3CC[C@]12C (some centres undefined) ... 5
CC(C#N)c1cccc(C(=O)c2ccccc2)c1 (centres undefined) ... 4
CCCCCCCCCCCC(=O)OC ... 5
Cc1ccccc1N1C(=O)c2cc(S(N)(=O)=O)c(Cl)cc2NC1C (centres undefined) ... 5
CC(=O)O[C@]1(C(C)=O)CC[C@H]2[C@@H]3C=C(C)C4=CC(=O)CC[C@@H]4[C@H]3CC[C@@]21C ... 5

====

method_description: rat acute oral toxicity
assay_conditions: in vivo
Description: […]The data set underlying the modeling effort for this project was initially compiled by NICEATM and U.S. EPA’s CCTE. Briefly, LD50 data were collected from rat acute oral systemic toxicity tests, including limit tests, ranges/confidence intervals, and discrete LD50 values. The full data set included 21,200 LD50 entries for 15,688 substances. […]
Recorded log10(LD50) by entry
quantity_kind: log10(LD50) (log10 of the value in mg/kg)

CCN(CC)CC ... 2.66
CCOC(=O)C1(c2ccccc2)CCN(C)CC1 ... 2.21
CC(=O)CC(c1ccccc1)c1c(O)c2ccccc2oc1=O (stereo not given) ... 0.20
Nc1ccc(S(=O)(=O)O)cc1 ... 4.09
OCCCCO ... 3.13
C=CC(=O)OCC ... 2.90
CC(COC(=O)c1ccccc1)OC(=O)c1ccccc1 (stereo not given) ... 3.42
CC(C)Nc1nc(Cl)nc(NC2CC2)n1 ... 2.71
COc1ccccc1NC(=O)CC(C)=O ... 3.20
C=C[Si](ON=C(C)CC)(ON=C(C)CC)ON=C(C)CC ... 3.55
C[Si](C)(C)N[Si](C)(C)C ... 2.93
CCCN(CCC)CCC ... 1.86
COCC(=O)N(c1c(C)cccc1C)C(C)C(=O)OC (stereo not given) ... 2.75
COc1ccc2c(c1)c(CC(=O)O)c(C)n2C(=O)c1ccc(Cl)cc1 ... 0.38
CCOc1ccc(CCCCCCC(C)C)cc1 ... 3.75
